Origin of the recorded values: patent US6310095A

tgt: protein farnesyltransferase (Rattus norvegicus, UniProt Q02293+Q04631)
Construct: Rat brain protein farnesyltransferase activity is measured; from tissue; host or cells: rat brain; purified according to Reiss et al., Cell 62:81-88 (1990), steps one through three
experimental protocol: in vitro inhibition of protein farnesyltransferase (scintillation proximity assay, biotin-K Ras B fragment)
Format: biochemical
experimental conditions: at 1 × 10^-8 M
measured metric: % inhibition of farnesyltransferase (%)
Write the number in % without appending the unit.

Problem: Fill blank: measured % inhibition of farnesyltransferase of the compound `CSCC[C@H](NC(=O)c1ccc(COCc2cccc(Cl)c2)cc1-c1ccccc1C)C(=O)[O-].[Li+]` is ____.
Solution: 71

Problem: Fill blank: measured % inhibition of farnesyltransferase of the compound `CSCC[C@H](NC(=O)c1ccc(COCc2ccccc2Cl)cc1-c1ccccc1C)C(=O)[O-].[Li+]` is ____.
Solution: 66

Problem: Fill blank: measured % inhibition of farnesyltransferase of the compound `CCSC[C@H](CC1CCCCC1)OCc1ccc(C(=O)N[C@@H](CCSC)C(=O)O)c(-c2ccccc2C)c1` is ____.
Solution: 93

Problem: Fill blank: measured % inhibition of farnesyltransferase of the compound `CSCC[C@H](NC(=O)c1ccc(CN2CCC[C@H]2COCC2CCCCC2)cc1-c1ccccc1C)C(=O)O` is ____.
Solution: 93

Problem: Fill blank: measured % inhibition of farnesyltransferase of the compound CCCCC(Cc1ccccc1Cl)OCc1ccc(C(=O)N[C@@H](CCSC)C(=O)O)c(-c2ccccc2C)c1 (some centres unmarked) is ____.
Solution: 79

Problem: Fill blank: measured % inhibition of farnesyltransferase of the compound `CSCC[C@H](NC(=O)c1ccc(COCCc2ccccc2Cl)cc1-c1ccccc1C)C(=O)[O-].[Li+]` is ____.
Solution: 68

Problem: Fill blank: measured % inhibition of farnesyltransferase of the compound `CSCC[C@H](NC(=O)c1ccc(COCc2cccc(C(C)C)c2)cc1-c1ccccc1C)C(=O)[O-].[Li+]` is ____.
Solution: 72

Next:
Problem: Fill blank: measured % inhibition of farnesyltransferase of the compound `CSCC[C@H](NC(=O)c1ccc(COCc2ccc(-c3ccc(C(C)C)cc3)o2)cc1-c1ccccc1C)C(=O)[O-].[Li+]` is ____.
Solution: 66
